Molecular target: Prothrombin (Homo sapiens)
pIC50: −log10 of the molar value.
PROPERTY MEASURED: pIC50

Request: API: value(readout= pIC50, system= Prothrombin (Homo sapiens), query= "CC(C)(C)NC(=O)N1CCN(C(=O)N2C(=O)[C@H](CC3CCNCC3)[C@H]2C(=O)O)CC1" )
Response: < 5.96

---

Target: Serine protease 1 (Bos taurus)
Assay: Inhibition of bovine trypsin at 0.2 uM
Everything with inhibition lower than 70% is label 0; everything else, including exactly 70%, is label 1.

Examples from the recorded data:
{"COMPOUND": "CC1=NN(c2ccc(C(=O)N3CCN(C(=O)N4C(=O)[C@H](CC5CCNCC5)C4C(=O)O)CC3)cc2)C(=O)C1 (single isomer, unassigned)", "CLASSIFICATION": "label 1"}
{"COMPOUND": "O=C(O)C1[C@@H](CC2CCNCC2)C(=O)N1C(=O)N1CCN(C(=O)c2ccccc2CCc2ccccc2)CC1 (single isomer, unassigned)", "CLASSIFICATION": "label 0"}
{"COMPOUND": "O=C(O)C1[C@@H](CC2CCNCC2)C(=O)N1C(=O)N1CCN(C(=O)c2cc3cc(F)ccc3[nH]2)CC1 (single isomer, unassigned)", "CLASSIFICATION": "label 0"}

Let us examine a further case.
Request: Identify whether the reported inhibition of the following compound is 70% or greater: Cc1onc(-c2ccccc2)c1C(=O)N1CCN(C(=O)N2C(=O)[C@H](CC3CCNCC3)C2C(=O)O)CC1 (single isomer, unassigned)
Response: label 0

---

Target: Serine protease 1 (Bos taurus, UniProt P00760)
Sequence (P00760 whole entry): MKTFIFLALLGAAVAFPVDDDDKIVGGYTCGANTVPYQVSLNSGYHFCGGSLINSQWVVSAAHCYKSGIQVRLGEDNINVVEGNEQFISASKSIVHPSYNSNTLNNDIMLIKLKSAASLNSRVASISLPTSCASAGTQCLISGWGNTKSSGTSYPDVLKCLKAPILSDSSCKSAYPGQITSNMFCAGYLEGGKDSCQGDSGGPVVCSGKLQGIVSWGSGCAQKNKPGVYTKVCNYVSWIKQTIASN
Assay: Inhibitory activity against bovine trypsin
PROPERTY MEASURED: IC50 (nM)
Dear colleague, please return just the value in nM, with no unit written.

Consider the following illustrative entries.
{"COMPOUND": "O=C(O)C1[C@@H](CC2CCNCC2)C(=O)N1C(=O)N1CCN(C(=O)Cc2ccc(CCCc3ccccc3)cc2)CC1 (single isomer, unassigned)", "IC50, nM": 1580}
{"COMPOUND": "O=C(O)C1[C@@H](CC2CCNCC2)C(=O)N1C(=O)N1CCN(C(=O)c2ccc(Oc3ccccc3)cc2)CC1 (single isomer, unassigned)", "IC50, nM": 140}
{"COMPOUND": "O=C(O)C1[C@@H](CC2CCNCC2)C(=O)N1C(=O)N1CCN(C(=O)c2ccc(-c3ccccc3)cc2)CC1 (single isomer, unassigned)", "IC50, nM": 120}
{"COMPOUND": "O=C(O)C1[C@@H](CC2CCNCC2)C(=O)N1C(=O)N1CCN(C(=O)Cc2ccc(Oc3ccccc3)cc2)CC1 (single isomer, unassigned)", "IC50, nM": 950}

Continue with the next compound.
Request: Give the measured IC50 of O=C(O)C1[C@@H](CC2CCNCC2)C(=O)N1C(=O)N1CCN(C(=O)Cc2cccc(Oc3ccccc3)c2)CC1 (single isomer, unassigned) .
Response: 970

---

# IC50 per entry for Urokinase-type plasminogen activator (Homo sapiens, UniProt P00749)
Dear colleague, please return just the value in µM, with no unit written.

{"MOLECULE": "O=C(O)C1[C@@H](CC2CCNCC2)C(=O)N1C(=O)N1CCN(C(=O)CCCCCc2ccccc2)CC1 (single isomer, unassigned)", "UNIT TEXT": "µM", "IC50": 0.97}
{"MOLECULE": "CC(C)(C)NC(=O)N1CCN(C(=O)N2C(=O)[C@H](CC3CCNCC3)[C@H]2C(=O)O)CC1", "UNIT TEXT": "µM", "IC50": 0.034}

Continue with the next molecule.
Request: API: value(readout= IC50, system= Urokinase-type plasminogen activator (Homo sapiens, UniProt P00749), query= O=C(O)C1[C@@H](CC2CCNCC2)C(=O)N1C(=O)N1CCN(C(=O)Cc2ccc(OCc3ccccc3)cc2)CC1 (single isomer, unassigned) )
Response: 1.21

---

Each entry below carries its reported inhibition.
Molecular target: UniProt P00760
Assay: Inhibition of bovine trypsin at 0.2 uM
Dear colleague, please return just the value in %, with no unit written.

Consider the following illustrative entries.
{"COMPOUND": "O=C(O)C1[C@@H](CC2CCNCC2)C(=O)N1C(=O)N1CCN(C(=O)c2cccc(Oc3ccccc3)c2)CC1 (single isomer, unassigned)", "PROPERTY MEASURED": "inhibition", "EXPERIMENTAL RESULT": 78}
{"COMPOUND": "O=C(O)C1[C@@H](CC2CCNCC2)C(=O)N1C(=O)N1CCN(C(=O)c2ccc3ccccc3c2)CC1 (single isomer, unassigned)", "PROPERTY MEASURED": "inhibition", "EXPERIMENTAL RESULT": 72}

Continue with the next compound.
Request: Give the measured inhibition of O=C(O)C1[C@@H](CC2CCNCC2)C(=O)N1C(=O)N1CCN(C(=O)c2ccccc2-c2ccccc2)CC1 (single isomer, unassigned) .
Response: 46

---

Target: UniProt P00760
Sequence (P00760 whole entry): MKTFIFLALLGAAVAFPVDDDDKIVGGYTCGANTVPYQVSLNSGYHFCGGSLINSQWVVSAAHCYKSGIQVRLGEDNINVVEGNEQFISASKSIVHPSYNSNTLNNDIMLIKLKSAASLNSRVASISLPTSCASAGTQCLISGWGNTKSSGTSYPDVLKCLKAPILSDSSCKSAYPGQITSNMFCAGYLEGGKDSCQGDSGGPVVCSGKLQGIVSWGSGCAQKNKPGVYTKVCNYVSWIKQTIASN
PROPERTY MEASURED: pIC50
By convention, pIC50 is the negative base-10 log of a molar concentration.

Consider the following illustrative entries.
{"MOLECULE": "O=C(O)C1[C@@H](CC2CCNCC2)C(=O)N1C(=O)N1CCN(C(=O)CCCCCc2cccc3ccccc23)CC1 (single isomer, unassigned)", "EXPERIMENTAL TARGET": "UniProt P00760", "pIC50": 6.62}
{"MOLECULE": "O=C(O)C1[C@@H](CC2CCNCC2)C(=O)N1C(=O)N1CCN(C(=O)Cc2ccc(OCc3ccccc3)cc2)CC1 (single isomer, unassigned)", "EXPERIMENTAL TARGET": "UniProt P00760", "pIC50": 6.36}
{"MOLECULE": "Cc1cccc(CCC(=O)N2CCN(C(=O)N3C(=O)[C@H](CC4CCNCC4)C3C(=O)O)CC2)c1 (single isomer, unassigned)", "EXPERIMENTAL TARGET": "UniProt P00760", "pIC50": 5.92}
{"MOLECULE": "O=C(O)C1[C@@H](CC2CCNCC2)C(=O)N1C(=O)N1CCN(C(=O)Cc2ccc(-c3ccccc3)cc2)CC1 (single isomer, unassigned)", "EXPERIMENTAL TARGET": "UniProt P00760", "pIC50": 6.13}
{"MOLECULE": "O=C(O)C1[C@@H](CC2CCNCC2)C(=O)N1C(=O)N1CCN(C(=O)CCCCCCc2cccc3ccccc23)CC1 (single isomer, unassigned)", "EXPERIMENTAL TARGET": "UniProt P00760", "pIC50": 6.49}

Request: Give the measured pIC50 of O=C(O)C1[C@@H](CC2CCNCC2)C(=O)N1C(=O)N1CCN(C(=O)CCCCc2ccccc2)CC1 (single isomer, unassigned) .
Response: 6.09

Request: Give the measured pIC50 of O=C(O)C1[C@@H](CC2CCNCC2)C(=O)N1C(=O)N1CCN(C(=O)c2ccc(CCCc3ccccc3)cc2)CC1 (single isomer, unassigned) .
Response: 6.51

Request: Give the measured pIC50 of Cc1ccc(C2=CN=C(CCC(=O)N3CCN(C(=O)N4C(=O)[C@H](CC5CCNCC5)C4C(=O)O)CC3)C2=O)cc1 (single isomer, unassigned) .
Response: 5.74

Request: Give the measured pIC50 of O=C(O)C1[C@@H](CC2CCNCC2)C(=O)N1C(=O)N1CCN(C(=O)c2ccc(OCc3ccccc3)cc2)CC1 (single isomer, unassigned) .
Response: 6.92

Request: Give the measured pIC50 of O=C(O)C1[C@@H](CC2CCNCC2)C(=O)N1C(=O)N1CCN(C(=O)CCCc2ccc3ccccc3c2)CC1 (single isomer, unassigned) .
Response: 6.22

Request: Give the measured pIC50 of "CC(C)(C)NC(=O)N1CCN(C(=O)N2C(=O)[C@H](CC3CCNCC3)[C@H]2C(=O)O)CC1" .
Response: 5.72

Request: Give the measured pIC50 of O=C(CCCC(=O)N1CCN(C(=O)N2C(=O)[C@H](CC3CCNCC3)C2C(=O)O)CC1)Nc1ccccc1 (single isomer, unassigned) .
Response: 5.87

Request: Give the measured pIC50 of O=C(O)C1[C@@H](CC2CCNCC2)C(=O)N1C(=O)N1CCN(C(=O)CCCCCCCc2ccccc2)CC1 (single isomer, unassigned) .
Response: 5.89

Where do these numbers come from? They come from ChEMBL document CHEMBL1147563.
